experiment: Equilibrium solubility of 4-iodo-3-nitrobenzamide, overnight at 25° C., measured by HPLC; assay type: physicochemical; settings: 5% DMA/40% PEG 400 in purified water, 25 °C, aqueous with cosolvent or surfactant or cyclodextrin, thermodynamic from solid, 5% DMA/40% PEG 400, 25° C.; read-out: Solubility
assay readout: solubility (µg/mL)

NC(=O)c1ccc(I)c([N+](=O)[O-])c1 [BA, 4-iodo-3-nitrobenzamide] :: 6050

----------
experiment: Equilibrium solubility of 4-iodo-3-nitrobenzamide, overnight at 25° C., measured by HPLC; assay type: physicochemical; settings: 40% HPBCD in purified water, 25 °C, aqueous with cosolvent or surfactant or cyclodextrin, thermodynamic from solid, HPBCD 40% in purified water, 25° C.; read-out: Solubility
assay readout: solubility

NC(=O)c1ccc(I)c([N+](=O)[O-])c1 [BA, 4-iodo-3-nitrobenzamide] :: 12.8 mg/mL

----------
experiment: Equilibrium solubility of 4-iodo-3-nitrobenzamide, overnight at 25° C., measured by HPLC; assay type: physicochemical; conditions: 25% HPBCD in purified water, 25 °C, aqueous with cosolvent or surfactant or cyclodextrin, thermodynamic from solid, HPBCD 25% in purified water, 25° C.; read-out: Solubility
assay readout: solubility

NC(=O)c1ccc(I)c([N+](=O)[O-])c1 [BA, 4-iodo-3-nitrobenzamide] :: 11.5 mg/mL

----------
assay: Equilibrium solubility of 4-iodo-3-nitrobenzamide, overnight at 25° C., measured by HPLC; assay type: physicochemical; details: 25% HPGCD in purified water, 25 °C, aqueous with cosolvent or surfactant or cyclodextrin, thermodynamic from solid, HPGCD 25% in purified water, 25° C.; read-out: Solubility
assay readout: solubility (µg/mL)

NC(=O)c1ccc(I)c([N+](=O)[O-])c1 [BA, 4-iodo-3-nitrobenzamide] :: 272

----------
experiment: Equilibrium solubility of 4-iodo-3-nitrobenzamide, overnight at 25° C., measured by HPLC; type: physicochemical; details: 0.9% NaCl, 25 °C, saline or isotonic, thermodynamic from solid, 0.9% NaCl, 25° C.; read-out: Solubility
assay readout: solubility (µg/mL)

NC(=O)c1ccc(I)c([N+](=O)[O-])c1 [BA, 4-iodo-3-nitrobenzamide] :: 164

----------
assay: Equilibrium solubility of 4-iodo-3-nitrobenzamide, overnight at 25° C., measured by HPLC; type: physicochemical; details: purified water, 25 °C, water, thermodynamic from solid, Purified Water, 25° C.; read-out: Solubility
assay readout: solubility (µg/mL)

NC(=O)c1ccc(I)c([N+](=O)[O-])c1 [BA, 4-iodo-3-nitrobenzamide] :: 182

----------
assay: Equilibrium solubility of 4-iodo-3-nitrobenzamide, overnight at 25° C., measured by HPLC; type: physicochemical; settings: 10% Cremophor RH40 in purified water, 25 °C, aqueous with cosolvent or surfactant or cyclodextrin, thermodynamic from solid, Cremophor RH40 10%, 25° C.; read-out: Solubility
assay readout: solubility

NC(=O)c1ccc(I)c([N+](=O)[O-])c1 [BA, 4-iodo-3-nitrobenzamide] :: 3370 µg/mL

----------
assay: Saturated solubility of BA in solvents, 25° C., absorbance at 320 nm; assay type: physicochemical; conditions: solvent (liquid filled capsule vehicle), 25 °C, oil or lipid, thermodynamic from solid, 20% v/v DMA in Capmul, 25° C.; read-out: BA Solubility
assay readout: solubility (mg/mL)

NC(=O)c1ccc(I)c([N+](=O)[O-])c1 [BA, 4-iodo-3-nitrobenzamide] :: 89
